target: Squalene synthase (Homo sapiens); assay: Inhibition of recombinant squalene synthase assessed as conversion of trans,trans-[1-3H]farnesyl pyrophosphate to [3H]squalene after 10 mins by liquid scintillation counting
Sequence (P37268 whole entry): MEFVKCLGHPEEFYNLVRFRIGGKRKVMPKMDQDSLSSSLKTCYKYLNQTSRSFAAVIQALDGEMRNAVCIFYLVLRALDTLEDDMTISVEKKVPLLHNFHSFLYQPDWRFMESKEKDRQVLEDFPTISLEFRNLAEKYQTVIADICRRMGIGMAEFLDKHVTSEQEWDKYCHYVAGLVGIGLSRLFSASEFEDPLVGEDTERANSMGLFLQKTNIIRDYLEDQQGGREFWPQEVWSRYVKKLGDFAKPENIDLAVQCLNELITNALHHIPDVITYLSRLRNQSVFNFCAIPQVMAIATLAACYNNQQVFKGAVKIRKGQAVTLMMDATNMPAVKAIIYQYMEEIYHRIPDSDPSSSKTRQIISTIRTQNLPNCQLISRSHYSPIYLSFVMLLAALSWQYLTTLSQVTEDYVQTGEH
attribute-measured: IC50 (nM)

COc1cccc([C@@H]2O[C@@H](CC(=O)O)c3noc(C(C)C)c3-c3ccc(Cl)cc32)c1OC :: 1420
COc1cccc([C@H]2O[C@H](CC(=O)N3CCC(CC(=O)O)CC3)C(=O)N(CC(C)(C)COC(C)=O)c3ccc(Cl)cc32)c1OC [LAPAQUISTAT ACETATE] :: 213

[1] COc1cccc(C2OC(CC(=O)O)c3noc(C(C)C)c3-c3ccc(Cl)cc32)c1OC (single isomer, unassigned; enantiomer 3)
[2] COc1cccc(C2OC(CC(=O)O)c3noc(C(C)C)c3-c3ccc(Cl)cc32)c1OC (single isomer, unassigned; enantiomer 2)
[3] COc1cccc([C@H]2O[C@H](CC(=O)O)c3noc(C(C)C)c3-c3ccc(Cl)cc32)c1OC
[4] COc1cccc([C@H]2O[C@H](CC(=O)N3CCC(C(=O)O)CC3)c3noc(C(C)C)c3-c3ccc(Cl)cc32)c1OC
Task: Hey, quick one: sort these by IC50, largest value first please. In your reply, arrange the labels in the requested order.
Output: 2, 1, 4, 3
(2: 5500 nM, 1: 169 nM, 4: 112 nM, 3: 56 nM)

[1] COc1cccc([C@H]2O[C@H](CC(=O)N3CC[C@@H](O)C3)c3noc(C(C)C)c3-c3ccc(Cl)cc32)c1OC
[2] COc1cccc([C@H]2O[C@H](CC(=O)N3CCC(CC(=O)O)CC3)C(=O)N(CC(C)(C)CO)c3ccc(Cl)cc32)c1OC
Task: Field: lower recorded IC50 (choose 1 or 2 ) Selection: enter the item's label.
Output: 1

[1] COc1cccc([C@H]2O[C@H](CC(=O)N3CCC(CC(=O)O)CC3)c3noc(C(C)C)c3-c3ccc(Cl)cc32)c1OC
[2] COc1cccc([C@H]2O[C@H](CC(=O)O)C(=O)N(CC(C)(C)CO)c3ccc(Cl)cc32)c1OC
Task: Field: lower recorded IC50 (choose 1 or 2 ) Selection: enter the item's label.
Output: 1

* * *

test: Stability in human liver microsomes assessed as compound remaining after 60 mins; assay type: ADME, Microsome; conditions: read-out: Stability
attribute-measured: remaining at 1 h (%)

COc1cccc(C2OC(CC(=O)O)c3noc(C(C)C)c3-c3ccc(Cl)cc32)c1OC (single isomer, unassigned; enantiomer 3) :: 64
COc1cccc([C@H]2O[C@H](CC(=O)O)c3noc(C(C)C)c3-c3ccc(Cl)cc32)c1OC :: 100

[1] COc1cccc([C@H]2O[C@H](CC(=O)N3CCC(CC(=O)O)CC3)C(=O)N(CC(C)(C)CO)c3ccc(Cl)cc32)c1OC
[2] COc1cccc([C@H]2O[C@H](CC(=O)N3CCC(CC(=O)O)CC3)C(=O)N(CC(C)(C)COC(C)=O)c3ccc(Cl)cc32)c1OC [LAPAQUISTAT ACETATE]
[3] COc1cccc([C@H]2O[C@H](CC(=O)N3CCC(CC(=O)O)CC3)c3noc(C(C)C)c3-c3ccc(Cl)cc32)c1OC
Task: Hey, quick one: sort these by remaining at 1 h, largest value first please. In your reply, arrange the labels in the requested order.
Output: 3, 1, 2
